Target: UniProt P00915
Sequence (P00915 whole entry): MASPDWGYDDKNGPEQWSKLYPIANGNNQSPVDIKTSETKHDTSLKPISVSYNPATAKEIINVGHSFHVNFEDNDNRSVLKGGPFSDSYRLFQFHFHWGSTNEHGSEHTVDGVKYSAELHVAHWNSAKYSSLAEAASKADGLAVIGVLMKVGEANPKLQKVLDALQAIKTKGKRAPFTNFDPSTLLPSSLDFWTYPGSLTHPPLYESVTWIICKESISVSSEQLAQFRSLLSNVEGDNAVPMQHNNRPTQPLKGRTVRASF
Assay: Inhibition of recombinant human carbonic anhydrase 1 preincubated with enzyme for 15 mins by phenol red dye based stopped flow CO2 hydration assay
readout-label: Ki (µM)
Respond with the bare value in µM.

Query block: Give Ki for `O=C1c2ccccc2C(=O)C1(O)O`
Result block: 5.38

Measured values drawn from ChEMBL document CHEMBL4732063 for this set.
